For each entry below, report its pIC50 value.
# system: GST-ALK5 (Homo sapiens, UniProt P36897)
# Sequence (P36897 34-503): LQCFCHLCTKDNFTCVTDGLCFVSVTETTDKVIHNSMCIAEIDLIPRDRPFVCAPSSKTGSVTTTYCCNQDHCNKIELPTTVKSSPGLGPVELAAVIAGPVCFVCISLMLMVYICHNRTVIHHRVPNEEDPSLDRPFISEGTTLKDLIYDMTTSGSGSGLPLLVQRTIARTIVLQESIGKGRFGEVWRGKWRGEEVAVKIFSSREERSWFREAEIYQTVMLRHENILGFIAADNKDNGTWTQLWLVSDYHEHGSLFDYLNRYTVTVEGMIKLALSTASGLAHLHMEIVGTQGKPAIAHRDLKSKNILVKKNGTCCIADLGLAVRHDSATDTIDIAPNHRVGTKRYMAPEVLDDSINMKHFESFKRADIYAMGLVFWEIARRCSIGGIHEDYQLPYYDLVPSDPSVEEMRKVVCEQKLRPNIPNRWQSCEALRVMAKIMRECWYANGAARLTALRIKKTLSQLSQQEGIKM
pIC50: −log10 of the molar value.

Note to self: pIC50 recorded for NC(=O)c1sc2nc(OC[C@@H]3CCCN3)nc(-c3cccc(Cl)c3)c2c1N [No 76] was < 6.00

Note to self: pIC50 recorded for C=CCOc1nc(-c2cccc(Cl)c2)c2c(N)c(C(N)=O)sc2n1 [No 3] was > 7.00

Note to self: pIC50 recorded for CNC(=O)CCCOc1nc(-c2cccc(Cl)c2)c2c(N)c(C(N)=O)sc2n1 [No 70] was 6.30 to 7.00

Note to self: pIC50 recorded for Cn1cnc(COc2nc(-c3cccc(Cl)c3)c3c(N)c(C(N)=O)sc3n2)c1 [No 45] was > 7.00

Note to self: pIC50 recorded for NC(=O)c1sc2nc(OCCn3ccnc3)nc(-c3cccc(Cl)c3)c2c1N [No 43] was 6.30 to 7.00

Note to self: pIC50 recorded for NC(=O)c1sc2nc(OCCO)nc(-c3cccc(C(F)(F)F)c3)c2c1N [No 15] was 6.00 to 6.30

Note to self: pIC50 recorded for Cc1ccc(-c2nc(OCc3cnn(C)c3)nc3sc(C(N)=O)c(N)c23)o1 [No 24] was > 7.00

Note to self: pIC50 recorded for Cc1ccc(-c2nc(OCc3ccccn3)nc3sc(C(N)=O)c(N)c23)o1 [No 38] was 6.30 to 7.00

Note to self: pIC50 recorded for Cc1cccc(-c2nc(OCc3ccn(C)n3)nc3sc(C(N)=O)c(N)c23)n1 [No 28] was > 7.00
